# experimental system: TLR9 (Homo sapiens, UniProt Q9NR96)
# Construct: expressed in transfected cells; host or cells: HEK293
# Sequence (Q9NR96 26-1032): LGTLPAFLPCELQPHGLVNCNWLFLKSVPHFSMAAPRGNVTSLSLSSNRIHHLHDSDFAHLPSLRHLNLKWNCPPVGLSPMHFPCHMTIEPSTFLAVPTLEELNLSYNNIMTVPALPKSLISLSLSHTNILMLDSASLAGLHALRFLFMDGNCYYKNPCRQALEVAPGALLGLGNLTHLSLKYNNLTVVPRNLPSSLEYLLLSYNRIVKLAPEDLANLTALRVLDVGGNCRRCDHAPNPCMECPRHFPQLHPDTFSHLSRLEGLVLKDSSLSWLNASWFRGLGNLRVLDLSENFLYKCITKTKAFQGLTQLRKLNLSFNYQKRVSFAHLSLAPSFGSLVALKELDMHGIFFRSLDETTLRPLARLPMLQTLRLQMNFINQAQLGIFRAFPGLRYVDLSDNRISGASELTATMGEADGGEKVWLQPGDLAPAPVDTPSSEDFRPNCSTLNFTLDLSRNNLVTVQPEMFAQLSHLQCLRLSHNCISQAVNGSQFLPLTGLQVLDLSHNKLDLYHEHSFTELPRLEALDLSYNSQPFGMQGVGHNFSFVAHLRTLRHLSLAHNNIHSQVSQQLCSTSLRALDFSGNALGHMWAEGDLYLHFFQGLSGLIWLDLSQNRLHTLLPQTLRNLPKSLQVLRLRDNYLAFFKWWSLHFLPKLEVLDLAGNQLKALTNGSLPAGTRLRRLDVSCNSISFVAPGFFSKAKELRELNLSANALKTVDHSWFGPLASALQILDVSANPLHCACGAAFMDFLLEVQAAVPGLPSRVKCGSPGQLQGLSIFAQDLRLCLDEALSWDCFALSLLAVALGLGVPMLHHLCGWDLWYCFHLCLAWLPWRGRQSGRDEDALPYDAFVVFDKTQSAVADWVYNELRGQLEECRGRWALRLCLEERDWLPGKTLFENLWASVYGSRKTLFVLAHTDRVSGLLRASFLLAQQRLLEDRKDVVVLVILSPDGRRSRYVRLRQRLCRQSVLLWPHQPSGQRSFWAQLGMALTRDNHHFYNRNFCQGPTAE
# procedure text: TLR9 screening of (+)-morphinan library, SEAP reporter in HEK293 cells expressing TLR9
# Format: cell-based
# experimental parameters: 10 μM; activator ODN2006; control (no activator) 0.14, activator 1.42 OD
assay readout: OD 650 nm (mean ± sd) (OD)
Provide only the numeric value, understood in OD.

> print(dat)
                                   molecule          assay.readout  output.unit  measured.value
1  COc1ccc2c3c1O[C@@H]1C(=O)CC[C@]4(O)[C@H](C2)N(C(=O)C2CCC2)CC[C@@]314 [II-59]  OD 650 nm (mean ± sd)           OD            1.41
2  C=CCN1CC[C@@]23CC(=O)CCC2C1Cc1c(-c2ccoc2)cc(OC)c(O)c13 (stereo partly drawn) [Compound I-3]  OD 650 nm (mean ± sd)           OD            0.11
3  COC(=O)/C=C/c1cc(OC)c2c3c1CC1C4CCC(=O)[C@@H](O2)[C@@]34CCN1CC1CC1 (stereo partly drawn) [II-15]  OD 650 nm (mean ± sd)           OD            0.23
4  COc1ccc2c3c1O[C@@H]1C(O)CC[C@]4(O)[C@H](C2)N(CC2CCC2)CC[C@@]314 (stereo partly drawn) [II-55]  OD 650 nm (mean ± sd)           OD            1.17
5  C=CCN1CC[C@@]23c4c5ccc(O)c4O[C@@H]2C(=O)CC[C@]3(OC)[C@@H]1C5 [II-70]  OD 650 nm (mean ± sd)           OD            0.79

[ask] Supply reported OD 650 nm (mean ± sd) belonging to this molecule: COc1cc(-c2ccoc2)c2c(c1O)[C@@]13CCN(CC4CC4)C(C2)C1CCC(=O)C3 (stereo partly drawn) [Compound I-13]
[reply] 0.13

---

Form field: OD 650 nm (mean ± sd) (one value per entry).
# experimental system: TLR9 (Homo sapiens)
# Construct: expressed in transfected cells; host or cells: HEK293
# procedure text: TLR9 screening of (+)-morphinan library, SEAP reporter in HEK293 cells expressing TLR9
# Format: cell-based
# experimental parameters: 100 nM; activator ODN2006; control (no activator) 0.14, activator 1.42 OD
Provide only the numeric value, understood in OD.

> print(dat)
                                   molecule  measured.value
1  COC1=CCC2[C@@H]3Cc4ccc(OC)c5c4[C@]2(CCN3C(=O)Oc2ccccc2)[C@@H]1O5 (stereo partly drawn) [II-100]            1.16
2  C=C1CC[C@]2(O)[C@@H]3Cc4ccc(O)c5c4[C@]2(CCN3CC2CC2)[C@@H]1O5 [II-77]            1.24

[ask] Please report the measured OD 650 nm (mean ± sd) for COC(=O)CCc1cc(OC)c(O)c2c1CC1C3CCC(=O)C[C@@]23CCN1CC1CC1 (stereo partly drawn) [Compound I-4] tested on TLR9 (Homo sapiens).
[reply] 1.17

[ask] Please report the measured OD 650 nm (mean ± sd) for CN(C(=O)/C=C/c1ccoc1)[C@H]1CC[C@]2(O)[C@@H]3Cc4ccc(O)c5c4[C@]2(CCN3CC2CC2)[C@@H]1O5 [II-62] tested on TLR9 (Homo sapiens).
[reply] 1.34

[ask] Please report the measured OD 650 nm (mean ± sd) for COC(=O)[C@@H](C)NC1CCC2C3Cc4ccc(OC)c5c4[C@]2(CCN3C)C1O5 (stereo partly drawn) [II-92] tested on TLR9 (Homo sapiens).
[reply] 1.09

[ask] Please report the measured OD 650 nm (mean ± sd) for CCCNC1CCC2C3Cc4ccc(OC)c5c4[C@]2(CCN3C)C1O5 (stereo partly drawn) [II-91] tested on TLR9 (Homo sapiens).
[reply] 0.12

[ask] Please report the measured OD 650 nm (mean ± sd) for COc1ccc2c(c1)CCN[C@@H]2Cc1ccc(OC)c(O)c1 [III-1] tested on TLR9 (Homo sapiens).
[reply] 1.34

[ask] Please report the measured OD 650 nm (mean ± sd) for COc1ccc2c3c1O[C@@H]1C(NC(C)=O)CC[C@]4(O)[C@H](C2)N(C)CC[C@@]314 (stereo partly drawn) [II-42] tested on TLR9 (Homo sapiens).
[reply] 1.00

[ask] Please report the measured OD 650 nm (mean ± sd) for COc1cc(Br)c2c3c1O[C@@H]1C(=O)CCC4C(C2)NCC[C@]341 (stereo partly drawn) [II-1] tested on TLR9 (Homo sapiens).
[reply] 0.97

Reference source for all entries: patent US10363251B2
